# Test system: MALME-3M melanoma
# ASSAY COMMENT: NCI tumour cell line growth inhibition, 48 h
READOUT: TGI

The compound listed as O=[N+]([O-])c1ccc(C(Nc2ccccc2)c2ccc3cccnc3c2O)cc1 (stereo not given) shows TGI equal to > 65.2 µM

The compound listed as `O=C(Nc1cccc(NC(=O)c2cc(=O)c3ccccc3o2)n1)c1cc(=O)c2ccccc2o1` shows TGI equal to > 100 µM

The compound listed as CC1OC2OC3C(OCC(O)C3O)OC(=O)[C@]34CCC(C)(C)CC3C3=CCC5[C@@]6(C)C[C@H](O)[C@H](OC7OC(CO)C(O)C(O)C7OC7OCC(OC(=O)CC(C)(O)CC(=O)OC1C(OC1OC(CO)C(O)C(O)C1O)C2O)C(O)C7O)[C@@](C)(CO)C6CC[C@@]5(C)[C@]3(C)CC4 (stereo not given in full) shows TGI equal to 17.5 µM

The compound listed as `Nc1[nH]c(=O)ncc1CO` shows TGI equal to > 100 µM

The compound listed as `CCCCCCCCCCCCCc1nn[nH]n1` shows TGI equal to 33.5 µM

The compound listed as `CC1=NN(C(=O)c2ccccc2O)C(=O)/C1=C/c1cccc([N+](=O)[O-])c1` shows TGI equal to > 100 µM

The compound listed as `CCCCCCCCCCCCCCCCOC(=O)c1cc(O)cc(C(=O)OCCCCCCCCCCCCCCCC)c1` shows TGI equal to > 100 µM

The compound listed as `O=C(c1ccco1)N(C(=S)OC12CC3CC(CC(C3)C1)C2)c1ccccc1` shows TGI equal to 65.7 µM

The compound listed as CSc1nc(NC(C)C)c2c(n1)Sc1nc3ccccc3n1C2O (stereo not given) shows TGI equal to 49.6 µM

The compound listed as `CC(NC(=O)c1ccccc1)(C(=O)O)C(=O)O` shows TGI equal to > 100 µM

The compound listed as `COc1ccc(CCN2CCc3c(C)c(C#N)c4nc5ccccc5n4c32)cc1OC` shows TGI equal to 99.8 µM

The compound listed as `O=c1cc(NCc2ccncc2)[nH]c(=O)[nH]1` shows TGI equal to > 100 µM

The compound listed as `CCCNc1ncnc2[nH]ncc12` shows TGI equal to > 100 µM

The compound listed as `O=C1CN(/N=C/c2ccc(-c3ccc(F)cc3)o2)C(=O)N1` shows TGI equal to > 100 µM

The compound listed as `COc1cnc2cc(C(=O)O)c3ccccc3c2c1` shows TGI equal to > 100 µM

The compound listed as `Cc1ccc(-c2n[nH]c(=O)n2/N=C\c2ccccc2)cc1` shows TGI equal to > 100 µM

The compound listed as CCOP(=O)(OCC)C(C)(CC)NC(=O)C(C(F)(F)F)C(F)(F)F (stereo not given) shows TGI equal to > 100 µM

The compound listed as `C(/Cc1ccc2c(c1)OCO2)=N\NC1=NCCCN1` shows TGI equal to > 100 µM

The compound listed as CC1CCC2N(C1)CC1C3(O)CC45OC6(O)C(O)CCC4(C)C6CCC5C3(O)CC(O)C1(O)C2(C)O (stereo not given) shows TGI equal to > 100 µM

The compound listed as `O=C(Nc1cccc(-n2cc(-c3ccncc3)c(-c3ccc(O)c(Cl)c3)n2)c1)c1cccc(C(F)(F)F)c1` shows TGI equal to > 100 µM
